Data provenance is patent US9352013B2.

- TEST: Example 1: pharmacokinetics after in-clinic subcutaneous dose
- Type: in vivo, human
- ASSAY CONTEXT: human, blood, sc, 1.25 mg, 1.25 mg SC, Visit 5; read-out: AUC(0-4h), Median
ASSAY ENDPOINT: AUC(0-t) (ng·h/mL)
Write the answer as a number in ng·h/mL, unit excluded.

# AUC(0-t) of CCCC[C@H](NC(C)=O)C(=O)N[C@H]1CC(=O)NCCCC[C@@H](C(=O)O)NC(=O)[C@H](Cc2c[nH]c3ccccc23)NC(=O)[C@H](CCCNC(=N)N)NC(=O)[C@@H](Cc2ccccc2)NC(=O)[C@H](Cc2c[nH]cn2)NC1=O [bremelanotide] = 136
